The measured values listed here are drawn from patent US7271264B2.

Reported log10 Ki values, ERbeta receptor (PanVera) (Homo sapiens).
Structures can show the parent of a compound that is named as a salt.
measured-parameter: log10 Ki (log10 of the value in nM)

compound	measured-target	log10 Ki
COc1ccc2c3c(ccc2c1)-c1ccccc1COC3c1ccc(OCCN2CCCCC2)cc1 (centres unmarked) [Example 3]	ERbeta receptor (PanVera) (Homo sapiens)	2.63
Cl.Oc1ccc2c3c(ccc2c1)-c1ccc(F)cc1COC3c1ccc(OCCN2CCCCC2)cc1 (single isomer, unassigned) [Example 8, hydrochloride salt]	ERbeta receptor (PanVera) (Homo sapiens)	0.15
Oc1ccc2c3c(ccc2c1)-c1ccccc1COC3c1ccc(OCCN2CCCCC2)cc1 (centres unmarked) [Example 4, trifluoroacetate]	ERbeta receptor (PanVera) (Homo sapiens)	0.60
Cl.Oc1ccc2c3c(ccc2c1)-c1ccc(F)cc1COC3c1ccc(OCCN2CCCCC2)cc1 (single isomer, unassigned) [Example 9, hydrochloride salt]	ERbeta receptor (PanVera) (Homo sapiens)	1.95
Cl.Oc1ccc2c(c1)COC(c1ccc(OCCN3CCCCC3)cc1)c1c-2ccc2cc(O)ccc12 (single isomer, unassigned) [Example 7]	ERbeta receptor (PanVera) (Homo sapiens)	0.23
